test: Pharmacokinetics in CD-1 mice; format: in vivo; settings: male, mouse, plasma, 15 mg/kg PO (n=3)
MEASURED QUANTITY: Tmax (h)
Express it in h; write the number only.

Example entries and their recorded answers appear below.
[2H]C([2H])([2H])N(C(=O)Oc1c(N2CCN(CC(O)CNC)C2=O)cc(C(F)(F)F)cc1C(F)(F)F)c1ccc(F)cc1 (stereo not drawn) [RTx-283] = 0.5
[2H]C([2H])([2H])N(C(=O)Oc1c(N2CCN(CC(O)CN(C)C)C2=O)cc(C(F)(F)F)cc1C(F)(F)F)c1ccc(F)cc1 (stereo not drawn) [RTx-284] = 1.33

In the following, a different molecule is considered.
Requested field: Tmax. Item: CN(C)CC(O)CN1CCN(c2cc(C(F)(F)F)cc(C(F)(F)F)c2OC(=O)N(C)c2ccc(F)cc2)C1=O (stereo not drawn) [RTx-182]
1.33

====

Reported half-life values for the following molecules.
assay: Pharmacokinetics in CD-1 mice; type: in vivo; settings: male, mouse, plasma, 50 mg/kg PO (n=3), read-out: T1/2 (PO) (converted)
Give the value in h but do not write h after it.

[2H]C([2H])([2H])N(C(=O)Oc1c(N2CCN(C[C@H](O)CN(C)C)C2=O)cc(C(F)(F)F)cc1C(F)(F)F)c1ccc(F)cc1 = 2.6

Which half-life is reported for this molecule? [2H]C([2H])([2H])N(C(=O)Oc1c(N2CCN(C[C@@H](O)CN(C)C)C2=O)cc(C(F)(F)F)cc1C(F)(F)F)c1ccc(F)cc1
2

Please report the recorded half-life for [2H]C([2H])([2H])N(C(=O)Oc1c(N2CCN(CC(O)CN(C)C)C2=O)cc(C(F)(F)F)cc1C(F)(F)F)c1ccc(F)cc1 (stereo not drawn) .
3.32

====

experiment: Pharmacokinetics in CD-1 mice; format: in vivo; conditions: male, mouse, plasma, 15 mg/kg PO (n=3)
Reported Cmax values for the following molecules.

Item CN(C)CC(O)CN1CCN(c2cc(C(F)(F)F)cc(C(F)(F)F)c2OC(=O)N(C)c2ccc(F)cc2)C1=O (stereo not drawn) [RTx-182] has what recorded Cmax?
512 ng/mL

Returns the measured Cmax for the input molecule. Input: [2H]C([2H])([2H])N(C(=O)Oc1c(N2CCN(CC(O)CN(C)C)C2=O)cc(C(F)(F)F)cc1C(F)(F)F)c1ccc(F)cc1 (stereo not drawn) [RTx-284]
659 ng/mL

Which Cmax value belongs to [2H]C([2H])([2H])N(C(=O)Oc1c(N2CCN(CC(O)CNC)C2=O)cc(C(F)(F)F)cc1C(F)(F)F)c1ccc(F)cc1 (stereo not drawn) [RTx-283] ?
453 ng/mL

====

test: Liver microsome stability; assay type: in vitro ADME; settings: male, CD1, pH 7.4; mouse liver microsomes; read-out: Clint (uL/min /mg) mouse
Below, each of the compounds is paired with its reported microsomal CLint at 1 μM value.
Respond with the figure and its unit, in that order.

[2H]C([2H])([2H])N(C(=O)Oc1c(N2CCN(C[C@@H](O)CNC)C2=O)cc(C(F)(F)F)cc1C(F)(F)F)c1ccc(F)cc1 [RTx-314] = 26.7 µL/min/mg

Which microsomal CLint at 1 μM value is on record for [2H]C([2H])([2H])N(C(=O)Oc1c(N2CCN(C[C@H](O)CN(C)C)C2=O)cc(C(F)(F)F)cc1C(F)(F)F)c1ccc(F)cc1 [RTx-303] ?
204 µL/min/mg

Quick check: microsomal CLint at 1 μM of [2H]C([2H])([2H])N(C(=O)Oc1c(N2CCN(C[C@H](O)CNC)C2=O)cc(C(F)(F)F)cc1C(F)(F)F)c1ccc(F)cc1 [RTx-315] ?
39.1 µL/min/mg

Which microsomal CLint at 1 μM is listed for [2H]C([2H])([2H])N(C(=O)Oc1c(N2CCN(C[C@@H](O)CN(C)C)C2=O)cc(C(F)(F)F)cc1C(F)(F)F)c1ccc(F)cc1 [RTx-302] ?
209 µL/min/mg

====

assay: Pharmacokinetics in CD-1 mice; format: in vivo; details: male, mouse, plasma, 10 mg/kg PO (n=3), read-out: T1/2 (PO) (converted)
MEASURED QUANTITY: half-life

Return reported half-life; argument: CNCC(O)CN1CCN(c2cc(C(F)(F)F)cc(C(F)(F)F)c2OC(=O)N(C)c2ccc(F)cc2)C1=O (stereo not shown) [RTx-290]
3.24 h

====

test: Liver microsome stability; type: in vitro ADME; conditions: male, Sprague-Dawley, pH 7.4; rat liver microsomes; read-out: T1/2 rat liver microsomes
MEASURED QUANTITY: half-life at 1 μM

Given [2H]C([2H])([2H])N(C(=O)Oc1c(N2CCN(CC(O)CNC)C2=O)cc(C(F)(F)F)cc1C(F)(F)F)c1ccc(F)cc1 (centres unmarked) , state its recorded half-life at 1 μM.
> 60 min

// lookup half-life at 1 μM for [2H]C([2H])([2H])N(C(=O)Oc1c(N2CCN(CC(O)CN(C)C)C2=O)cc(C(F)(F)F)cc1C(F)(F)F)c1ccc(F)cc1 (centres unmarked)
> 54 min

====

assay: Pharmacokinetics in CD-1 mice; format: in vivo; settings: male, mouse, plasma, 50 mg/kg PO (n=3)
MEASURED QUANTITY: Tmax (h)
# unit: h | format: bare number

Some compounds with known Tmax results, for comparison:
[2H]C([2H])([2H])N(C(=O)Oc1c(N2CCN(C[C@@H](O)CN(C)C)C2=O)cc(C(F)(F)F)cc1C(F)(F)F)c1ccc(F)cc1 [RTx-302] = 1.3
[2H]C([2H])([2H])N(C(=O)Oc1c(N2CCN(CC(O)CN(C)C)C2=O)cc(C(F)(F)F)cc1C(F)(F)F)c1ccc(F)cc1 (stereo not drawn) [RTx-284] = 2

Kindly review the next compound as well.
Given [2H]C([2H])([2H])N(C(=O)Oc1c(N2CCN(C[C@H](O)CN(C)C)C2=O)cc(C(F)(F)F)cc1C(F)(F)F)c1ccc(F)cc1 [RTx-303] , state its recorded Tmax.
3.3

====

test: Solubility (PBS, 2% DMSO); format: physicochemical; conditions: PBS with 2% DMSO, aqueous buffer, kinetic from dmso stock
MEASURED QUANTITY: solubility

Below: 2 compounds and their reported solubility.
[2H]C([2H])([2H])N(C(=O)Oc1c(N2CCN(CC(O)CN(C)C)C2=O)cc(C(F)(F)F)cc1C(F)(F)F)c1ccc(F)cc1 (stereo not drawn) = > 200 µM
[2H]C([2H])([2H])N(C(=O)Oc1c(N2CCN(CC(O)CNC)C2=O)cc(C(F)(F)F)cc1C(F)(F)F)c1ccc(F)cc1 (stereo not drawn) = > 200 µM

// moving on: another record for solubility
# get_value(readout='solubility', item= [2H]C([2H])([2H])N(C(=O)Oc1c(N2CCN(C[C@H](O)CN(C)C)C2=O)cc(C(F)(F)F)cc1C(F)(F)F)c1ccc(F)cc1 )
> 200 µM
